Biological target: T1, HLA-B*08:01 (human, biotinylated heavy chain)
T1 construct: Conditional HLA class I complex as for m1
Assay: UV peptide exchange; HLA class I ELISA
What Average % was measured for each of the following?
Field format: number, assumed %, no unit text.

q: Can you look up the measured Average % of LIAMDSAIT [Peptide 10, 9-mer LIAMDSAIT derived from P22 (SEQ ID NO: 1003)] for me?
a: 7.3

q: // Average % lookup, key: SLYHREKQL [Peptide 4, 9-mer SLYHREKQL derived from P22 (SEQ ID NO: 1003)]
a: 20.7

q: Any idea what its Average % is? The binder is HREKQLIAM [Peptide 7, 9-mer HREKQLIAM derived from P22 (SEQ ID NO: 1003)]
a: 9.5

q: Given the entry AMDSAITLW [Peptide 1, 9-mer AMDSAITLW derived from FUS1 (SEQ ID NO: 1001)] , report its measured Average %.
a: 7

q: Quick check: Average % of IAMDSAITL [Peptide 2, 9-mer IAMDSAITL derived from FUS1 (SEQ ID NO: 1001)] ?
a: 7.9

q: Would you kindly share the measured Average % for YHREKQLIA [Peptide 6, 9-mer YHREKQLIA derived from P22 (SEQ ID NO: 1003)] ?
a: 8.3

q: Please report the recorded Average % for LYHREKQLI [Peptide 5, 9-mer LYHREKQLI derived from P22 (SEQ ID NO: 1003)] .
a: 7.7

q: Please look up its Average %: SLIAMDSAI [Peptide 3, 9-mer SLIAMDSAI derived from FUS1 (SEQ ID NO: 1001)]
a: 7.3

q: # get_value(readout='Average %', item= KQLIAMDSA [Peptide 9, 9-mer KQLIAMDSA derived from P22 (SEQ ID NO: 1003)] )
a: 7.7
